test: Cytotoxicity against human melanoma cells after 48 hrs; assay type: functional; conditions: Melanoma cell
propertyName: GI50 (µM)
Reply with just the number (in µM).

- smilesInput: "COc1cc(/C=C2\\C(=O)Nc3cc(OC(F)(F)F)ccc32)cc(OC)c1OC"
  recordedResult: 2.6
- smilesInput: "COc1cc(/C=C2/C(=O)N(C)c3ccc(O)cc32)cc(OC)c1OC"
  recordedResult: 4.9
- smilesInput: "COc1ccc2c(c1)/C(=C\\c1cc(OC)c(OC)c(OC)c1)C(=O)N2C"
  recordedResult: 3.1
- smilesInput: "COc1ccc(OC)c2c1NC(=O)/C2=C\\c1cc(OC)c(OC)c(OC)c1"
  recordedResult: 5.2
- smilesInput: "COc1cc(/C=C2\\C(=O)Nc3ccc(N(C)C)cc32)cc(OC)c1OC"
  recordedResult: 3.5

// next entry
## Task Give the measured GI50 of COc1cc(/C=C2\C(=O)N(C)c3ccc(Cl)cc32)cc(OC)c1OC .
## Result 5

====

test: Cytotoxicity against human leukemia cells after 48 hrs; assay type: functional; conditions: Leukemia cell, read-out: LC50 (the source's name)
propertyName: log10 of CC50 (log10 of the value in µM)
For clarity, the numbers are log10 values of CC50 expressed in µM.

- smilesInput: "CC[C@]1(O)C[C@H]2CN(CCc3c([nH]c4ccccc34)[C@@](C(=O)OC)(c3cc4c(cc3OC)N(C=O)[C@H]3[C@@](O)(C(=O)OC)[C@H](OC(C)=O)[C@]5(CC)C=CCN6CC[C@]43[C@@H]65)C2)C1"
  log10 of CC50: 2.80

## Task Suppose we examine the compound COc1cc(/C=C2\C(=O)Nc3cc(Cl)ccc32)cc(OC)c1OC ; what log10 of CC50 value has been reported?
## Result 1.75

## Task Quick one: log10 of CC50 for COc1cc(/C=C2\C(=O)N(C)c3ccc(Cl)cc32)cc(OC)c1OC ?
## Result 1.83

## Task Endpoint output: log10 of CC50 of COc1cc(/C=C2/C(=O)Nc3cc(C)c(O)cc32)cc(OC)c1OC . Value?
## Result 1.85

## Task Sample COc1ccc2c(c1)/C(=C\c1cc(OC)c(OC)c(OC)c1)C(=O)N2C — what was its log10 of CC50?
## Result 1.94

## Task Entry COc1ccc(OC)c2c1NC(=O)/C2=C\c1cc(OC)c(OC)c(OC)c1 : reported log10 of CC50 = ?
## Result 1.90

## Task So what does the record say about log10 of CC50 for COc1cc(/C=C2\C(=O)Nc3ccc(N(C)C)cc32)cc(OC)c1OC ?
## Result 1.91

## Task Item COc1cc(/C=C2\C(=O)N(Cc3ccc(Cl)cc3)c3ccccc32)cc(OC)c1OC has what recorded log10 of CC50?
## Result 1.70

## Task So what's the measured log10 of CC50 for this one? COc1cc(/C=C2/C(=O)N(C)c3ccc(O)cc32)cc(OC)c1OC
## Result 1.91

====

assay: Cytotoxicity against human melanoma cells after 48 hrs; assay type: functional; settings: Melanoma cell, read-out: LC50 (the source's name)
Please assign Criterion not met whenever CC50 is at or above 40 µM, and Criterion met whenever it is below.

- smilesInput: "COc1ccc(CN2C(=O)/C(=C\\c3cc(OC)c(OC)c(OC)c3)c3ccccc32)cc1"
  labelClass: "Criterion met"
- smilesInput: "COc1cc(/C=C2/C(=O)N(C)c3ccc(O)cc32)cc(OC)c1OC"
  labelClass: "Criterion not met"
- smilesInput: "COc1ccc(CN2C(=O)/C(=C/c3cc(OC)c(OC)c(OC)c3)c3cc(OC)ccc32)cc1"
  labelClass: "Criterion met"
- smilesInput: "COc1cc(/C=C2\\C(=O)N(Cc3ccc(Cl)cc3)c3ccccc32)cc(OC)c1OC"
  labelClass: "Criterion met"
- smilesInput: "COc1ccc2c(c1)/C(=C\\c1cc(OC)c(OC)c(OC)c1)C(=O)N2C"
  labelClass: "Criterion not met"
- smilesInput: "COc1cc(/C=C2/C(=O)Nc3cc(C)c(O)cc32)cc(OC)c1OC"
  labelClass: "Criterion not met"

## Task Identify whether the molecule COc1cc(/C=C2\C(=O)Nc3cc(OC(F)(F)F)ccc32)cc(OC)c1OC records CC50 below 40 µM.
## Result Criterion not met

## Task Threshold test, CC50 < 40 µM: COc1cc(/C=C2\C(=O)N(C)c3ccc(Cl)cc32)cc(OC)c1OC
## Result Criterion not met

## Task For COc1ccc(OC)c2c1NC(=O)/C2=C\c1cc(OC)c(OC)c(OC)c1 , is the recorded CC50 below the cut-off of 40 µM?
## Result Criterion not met

## Task Given the entry COc1cc(/C=C2\C(=O)Nc3cc(Cl)ccc32)cc(OC)c1OC , would its reported CC50 be below 40 µM?
## Result Criterion met

====

test: Cytotoxicity against human prostate cancer cells after 48 hrs; type: functional; conditions: Cancer cell lines
propertyName: TGI (µM)
// units = µM; emit number, no label

- smilesInput: "COc1cc(/C=C2\\C(=O)Nc3ccc(N(C)C)cc32)cc(OC)c1OC"
  unitInfo: "µM"
  TGI: 43.6

## Task Recorded TGI for COc1ccc(OC)c2c1NC(=O)/C2=C\c1cc(OC)c(OC)c(OC)c1 , please?
## Result 22.9

## Task What TGI value was documented for this compound, COc1cc(/C=C2/C(=O)Nc3cc(C)c(O)cc32)cc(OC)c1OC ?
## Result 30.9

## Task // returns reported TGI for input COc1cc(/C=C2\C(=O)Nc3cc(OC(F)(F)F)ccc32)cc(OC)c1OC
## Result 29.5

## Task Query: TGI; subject: COc1cc(/C=C2\C(=O)N(C)c3ccc(Cl)cc32)cc(OC)c1OC
## Result 11.2

## Task Looking for the measured TGI of COc1ccc(CN2C(=O)/C(=C/c3cc(OC)c(OC)c(OC)c3)c3cc(OC)ccc32)cc1 , can you help?
## Result 14.1

## Task Can you look up the measured TGI of COc1ccc(CN2C(=O)/C(=C\c3cc(OC)c(OC)c(OC)c3)c3ccccc32)cc1 for me?
## Result 26.3

====

Entries and their pIC50 values follow.
assay: Inhibition of bovine brain tubulin assembly after 20 mins
pIC50: −log10 of the molar value.

Answered cases to consult:
- smilesInput: "COc1cc(/C=C2\\C(=O)Nc3cc(OC(F)(F)F)ccc32)cc(OC)c1OC"
  recordedResult: "< 4.70"
- smilesInput: "COc1cc(/C=C2\\C(=O)N(C)c3ccc(Cl)cc32)cc(OC)c1OC"
  recordedResult: "< 4.70"
- smilesInput: "COc1ccc2c(c1)/C(=C\\c1cc(OC)c(OC)c(OC)c1)C(=O)N2C"
  recordedResult: "< 4.70"
- smilesInput: "COc1cc(/C=C2\\C(=O)Nc3ccc(N(C)C)cc32)cc(OC)c1OC"
  recordedResult: "< 4.70"
- smilesInput: "COc1cc(/C=C2\\C(=O)Nc3cc(Cl)ccc32)cc(OC)c1OC"
  recordedResult: 4.82

## Task Could you share which pIC50 value was measured for COc1ccc(CN2C(=O)/C(=C/c3cc(OC)c(OC)c(OC)c3)c3cc(OC)ccc32)cc1 ?
## Result < 4.70

## Task I would be grateful if you could share the reported pIC50 for COc1cc(/N=C2\C(=O)N(Cc3ccccc3)c3ccccc32)cc(OC)c1OC .
## Result 5.48

## Task Can you share its pIC50? I mean this compound: COc1cc(/C=C2/C(=O)N(C)c3ccc(O)cc32)cc(OC)c1OC
## Result < 4.70

## Task Item under review: COc1cc(/C=C2/C(=O)Nc3cc(C)c(O)cc32)cc(OC)c1OC . Reported pIC50?
## Result < 4.70

## Task Give the measured pIC50 of COc1ccc(OC)c2c1NC(=O)/C2=C\c1cc(OC)c(OC)c(OC)c1 .
## Result < 4.70

====

experiment: Cytotoxicity against human breast cancer cells after 48 hrs; type: functional; settings: Cancer cell lines
LC50 for assorted compounds
Answer format: numeric, µM implied, no suffix.

Completed entries (count: 7):
- smilesInput: "COc1ccc(OC)c2c1NC(=O)/C2=C\\c1cc(OC)c(OC)c(OC)c1"
  propertyName: "LC50"
  recordedResult: 64.6
- smilesInput: "COc1cc(/C=C2/C(=O)N(C)c3ccc(O)cc32)cc(OC)c1OC"
  propertyName: "LC50"
  recordedResult: 61.7
- smilesInput: "COc1cc(/C=C2/C(=O)Nc3cc(C)c(O)cc32)cc(OC)c1OC"
  propertyName: "LC50"
  recordedResult: 74.1
- smilesInput: "COc1ccc(CN2C(=O)/C(=C/c3cc(OC)c(OC)c(OC)c3)c3cc(OC)ccc32)cc1"
  propertyName: "LC50"
  recordedResult: 79.4
- smilesInput: "COc1cc(/C=C2\\C(=O)N(Cc3ccc(Cl)cc3)c3ccccc32)cc(OC)c1OC"
  propertyName: "LC50"
  recordedResult: 95.5
- smilesInput: "COc1ccc(CN2C(=O)/C(=C\\c3cc(OC)c(OC)c(OC)c3)c3ccccc32)cc1"
  propertyName: "LC50"
  recordedResult: 93.3
- smilesInput: "COc1cc(/C=C2\\C(=O)Nc3cc(Cl)ccc32)cc(OC)c1OC"
  propertyName: "LC50"
  recordedResult: 31.6

Continue with the compound presented below.
## Task GET /values?readout=LC50&item= COc1cc(/C=C2\C(=O)Nc3cc(OC(F)(F)F)ccc32)cc(OC)c1OC
## Result 60.3
